B1: ZNF232 (parent)
chain: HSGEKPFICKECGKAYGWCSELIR

# Variants of: B1
# measurement-description: protein stability index of a GFP-peptide fusion (GPS, HEK-293T) (PSI 1-6); higher = more stable;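 note: lentivirally expressed fusions sorted by FACS into six bins by GFP to DsRed ratio, PSI derived from sequencing read proportions per bin multiplied by bin number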
# conditions-used: c terminus: a fixed tail appended
property-label: protein stability index
Just the number, please, no unit after it.

>  <mutant-designation>
K10L

>  <protein stability index>
1.92

$$$$
>  <mutant-designation>
P6A

>  <protein stability index>
1.74

$$$$
>  <mutant-designation>
I23R

>  <protein stability index>
2

$$$$
>  <mutant-designation>
K10E

>  <protein stability index>
2.33

$$$$
>  <mutant-designation>
G13M

>  <protein stability index>
1.89

$$$$
>  <mutant-designation>
F7R

>  <protein stability index>
2.12

$$$$

Input line: Give the measured protein stability index for G17S
Output line: 1.8
